Source: patent US20260193326A1

target: T1, AAV2 (UniProt P03135 1-735); assay: SPR, AAV on CM5 chip;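 further: surface plasmon resonance with AAV amine-coupled to the chip as ligand, nanobodies injected as analyte over a concentration series, rate constants and affinity fitted from binding curves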
T1 construct: also called adeno-associated virus serotype 2
T1 sequence (P03135 whole entry): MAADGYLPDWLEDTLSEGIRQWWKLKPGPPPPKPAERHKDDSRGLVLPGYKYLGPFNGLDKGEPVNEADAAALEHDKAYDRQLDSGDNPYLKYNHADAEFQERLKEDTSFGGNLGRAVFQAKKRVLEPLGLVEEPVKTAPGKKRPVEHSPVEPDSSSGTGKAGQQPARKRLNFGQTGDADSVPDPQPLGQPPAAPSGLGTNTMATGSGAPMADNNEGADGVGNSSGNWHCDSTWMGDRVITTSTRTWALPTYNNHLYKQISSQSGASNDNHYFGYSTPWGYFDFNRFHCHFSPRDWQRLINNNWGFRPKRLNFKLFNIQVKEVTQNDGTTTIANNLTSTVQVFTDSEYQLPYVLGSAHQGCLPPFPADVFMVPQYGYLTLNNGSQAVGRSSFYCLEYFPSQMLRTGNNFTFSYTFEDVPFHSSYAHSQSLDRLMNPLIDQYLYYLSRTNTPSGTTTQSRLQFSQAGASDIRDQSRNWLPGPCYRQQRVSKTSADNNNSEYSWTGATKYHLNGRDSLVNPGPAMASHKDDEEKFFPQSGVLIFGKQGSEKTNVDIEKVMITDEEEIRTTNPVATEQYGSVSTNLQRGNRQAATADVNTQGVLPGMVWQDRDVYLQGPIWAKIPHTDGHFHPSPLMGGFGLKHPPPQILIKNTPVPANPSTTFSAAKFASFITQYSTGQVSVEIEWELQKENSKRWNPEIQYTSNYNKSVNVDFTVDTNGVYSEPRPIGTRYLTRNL
Kd: recorded values
experimental readout: Kd (nM)

INSERT INTO assay_data (binder, unit_symbol, recorded_measurement) VALUES
  ('A4-011 (VHH) VHH: VQLQESGGGLVQAGGSLRLSCAASGSIFSINSMGWYRQAPGKQRELVATVTRGGNTNYAGSVKGRFTISRDNAKNTVYLQMNSLRPEDTAVYYCHVDEVRESSWTTSNLWGQGTQVTVSS', 'nM', 284),
  ('A4-046 (VHH) VHH: VQLQESGGGLVQPGGSLRLSCAASGSRFSINTMGWYRQAPGKQRELVATVTRGGSTNYADSVKGRFTISRDNAKNTVYLQMNSLRPEDTAVYYCHVDEVRQSSWTTSNLWGQGTQVTVSS', 'nM', 48.8),
  ('A4-034 (VHH) VHH: VQLQESGGGLVQPGGSLRLSCAASGRGFSINTMGWYRQAPGKQRELVAAVTRGGTTNYADSVKGRFTISRDNAKNTVYLQMNSLRPEDTAVYYCHVDEVRQSSWTTSNLWGQGTQVTVSS', 'nM', 3.36),
  ('A4-044 (VHH) VHH: VQLQESGGGLVQPGGSLRLSCAASGSSFSINTMGWYRQAPGKQRELVATVTRGGVTNYADSVKGRFTISRDNAKNTVYLQMNSLRPEDTAVYYCHVDEVRQSSWTTSNLWGQGTQVTVSS', 'nM', 13.1);
